Tested on: IGROV1 ovarian
Experiment: NCI tumour cell line growth inhibition, 48 h
OBSERVABLE: TGI

Please tell me the measured TGI for Fc1ccc2c3c([nH]c2c1)CCN(Cc1ccccc1)C3 ; system: IGROV1 ovarian.
42.5 µM

Please tell me the measured TGI for O=[S@]1c2ccc3ccccc3c2N[C@@H]2[C@H]1[C@H]1C=C[C@@H]2C1 ; system: IGROV1 ovarian.
> 100 µM

Please tell me the measured TGI for COc1c(C(=O)NCCN(CCNC(=O)c2cccc(-c3cccc(C(=O)N(C)C)c3OC)c2OC)CCNC(=O)c2cccc(-c3cccc(C(=O)N(C)C)c3OC)c2OC)cccc1-c1cccc(C(=O)N(C)C)c1OC ; system: IGROV1 ovarian.
> 100 µM

Please tell me the measured TGI for COc1ccccc1/C=C/C1=NN(c2cccc(S(=O)(=O)O)c2)C2(C1)C(Cl)C(=O)N2c1nc2ccccc2s1 (stereo not drawn) ; system: IGROV1 ovarian.
> 100 µM

Please tell me the measured TGI for COc1ccc(/C=C2/SC(Nc3nc(-c4nc(NC5=NC(=O)/C(=C\c6ccc(OC)cc6)S5)sc4C)c(C)s3)=NC2=O)cc1 ; system: IGROV1 ovarian.
> 50 µM

Please tell me the measured TGI for O=C1O[C@H]2[C@H](OC(=O)c3cc(O)c(O)c(O)c3)[C@@H](OC(=O)c3cc(O)c(O)c4c3[C@@H]3C1=CC(=O)C(O)(O)C3(O)O4)[C@H](OC(=O)c1cc(O)c(O)c(O)c1)O[C@@H]2COC(=O)c1cc(O)c(O)c(O)c1 (stereo partly drawn) ; system: IGROV1 ovarian.
> 100 µM

Please tell me the measured TGI for C=CCc1c(O)c2nsnc2c2nsnc12 ; system: IGROV1 ovarian.
> 10 µM

Please tell me the measured TGI for CSc1nc2c(c(=O)n1C)N=C(c1ccc([N+](=O)[O-])cc1)CC(c1ccccc1)N2 (stereo not drawn) ; system: IGROV1 ovarian.
> 100 µM

Please tell me the measured TGI for CC(C)C1NC(=O)CC(c2ccccc2)N(N=O)C1c1ccccc1 (stereo not drawn) ; system: IGROV1 ovarian.
> 100 µM

Please tell me the measured TGI for O=C1c2ccccc2C2CCC1c1ccccc12 (stereo not drawn) ; system: IGROV1 ovarian.
> 100 µM

Please tell me the measured TGI for COC(=O)c1oc2c(C(=O)/C=C/c3ccc(OC)cc3)c(OCCN(C)C)ccc2c1C ; system: IGROV1 ovarian.
21.4 µM

Please tell me the measured TGI for CC(=O)NNc1nc(C)c(C(/C=C/c2ccccc2O)=N/N=C(N)N)s1 ; system: IGROV1 ovarian.
> 100 µM

Please tell me the measured TGI for COC(=O)CCNC(=O)OCc1ccccc1 ; system: IGROV1 ovarian.
> 100 µM

Please tell me the measured TGI for CC(C)CC(N)C(=O)Nc1ccc2ccccc2c1 (stereo not drawn) ; system: IGROV1 ovarian.
> 100 µM

Please tell me the measured TGI for COc1ccc2c(c1)/C(=C\c1c(Cl)[nH]c3ccccc13)C(=O)N2 ; system: IGROV1 ovarian.
9.78 µM

Please tell me the measured TGI for COC(=O)C1C(=O)O[C@@H](c2cc(OC)c(OC)cc2OC)C1C(=O)OC (mixture of isomers) ; system: IGROV1 ovarian.
> 100 µM

Please tell me the measured TGI for CC(C)=CCC[C@@H](C)C1=C(O)C(Nc2ccccc2Cl)=C(C)C(=O)C1=O ; system: IGROV1 ovarian.
46.5 µM

Please tell me the measured TGI for COc1cccc(C2c3cc4c(cc3OC(NNS(=O)(=O)c3ccc(C)cc3)C2C)OCO4)c1OC (stereo not drawn) ; system: IGROV1 ovarian.
15.3 µM

---

System: MDA-MB-231 breast
Test: NCI tumour cell line growth inhibition, 48 h
OBSERVABLE: TGI

Give the reported value of TGI for this record: CCOC(=O)/C(=N/Nc1ccccc1)N1C(=S)C=C(C)NN(C)C1=S
> 100 µM

Give the reported value of TGI for this record: O=C(CCN1CCCCC1)N1CCc2c([nH]c3ccccc23)C1c1cccnc1 (stereo not drawn)
> 74.2 µM

Give the reported value of TGI for this record: COc1cc(C2c3cc4c(cc3C(OC(=O)C[n+]3ccccc3)C3COC(=O)C23)OCO4)cc(OC)c1OC (stereo not drawn)
> 22.4 µM

Give the reported value of TGI for this record: C=CCOC(=O)C1=C(C)NC2=N[C@H](CCCCCCCCC)C[C@@H]3CCC1N23 (stereo partly drawn)
41.7 µM

Give the reported value of TGI for this record: Cc1ccc2c(=O)cc(-c3ccc(C)s3)[nH]c2n1
> 100 µM

Give the reported value of TGI for this record: COc1ccc(-c2c3c(n(C4OC(CO)C(O)C(O)C4O)c(=S)c2C#N)CCCC3)cc1 (stereo not drawn)
> 100 µM

Give the reported value of TGI for this record: COC1CC(OC2C(C)OC(OC3C(C)OC(OC4C(C)OC(O[C@H]5CC[C@@]6(C)C(=CC[C@]7(O)[C@@H]6C[C@@H](OC(C)=O)[C@@]6(C)[C@]7(O)CC[C@@]6(O)C(C)=O)C5)CC4OC)CC3OC)CC2OC)OC(C)C1O (stereo partly drawn)
> 25 µM

Give the reported value of TGI for this record: O=C1CCc2ccc(O)c(c2)Oc2ccc(cc2)C(Sc2ccccc2)CCO1 (stereo not drawn)
19.2 µM

---

Test system: SK-MEL-2 melanoma
Assay: NCI tumour cell line growth inhibition, 48 h
For each of the compounds below, state its TGI.
Field: numeric (µM). Do not append units.

Give the reported value of TGI for this record: Cc1ccc2nc(C(C)C)c(=O)[nH]c2c1
28.2

Give the reported value of TGI for this record: CCCCCC/C=C\CCCCCCCCCC1=C(CN2CCN(C)CC2)C(=O)C=C(OC)C1=O
18.7

Give the reported value of TGI for this record: C=C1C(=O)O[C@H]2C1C[C@@H](OC(C)=O)/C(C)=C/CC[C@@]1(C)O[C@H]21 (stereo partly specified)
57.9

---

System: NCI/ADR-RES ovarian
Test: NCI tumour cell line growth inhibition, 48 h; in the data active = GI50 below about 0.43 µM; inactive = the rest
Return exactly one item of active, inactive

Kindly provide the recorded test outcome for the following compound: Cc1cc(Nc2nc(N[C@@H](C)c3ncc(F)cn3)ncc2Cl)n[nH]1
inactive

Kindly provide the recorded test outcome for the following compound: COC(=O)c1oc2c(C(=O)/C=C/c3ccc(OC)cc3)c(OCCN(C)C)ccc2c1C
inactive

Kindly provide the recorded test outcome for the following compound: CC(=O)C1=C(O)C=C2Oc3c(C(=O)/C=C/c4cc(Cl)cc(Cl)c4)c(O)c(C)c(O)c3[C@]2(C)C1=O
inactive

Kindly provide the recorded test outcome for the following compound: COc1ccc([C@@]23Oc4cc(OC)cc(OC)c4[C@]2(O)[C@H](O)[C@H](C(N)=O)[C@H]3c2ccccc2)cc1
active

Kindly provide the recorded test outcome for the following compound: CO[C@H]1CC(O[C@@H]2/C(C)=C/C[C@@H]3C[C@@H](C[C@]4(CC[C@H](C)[C@@H](C5CCCCC5)O4)O3)OC(=O)[C@@H]3C=C(C)/C(=N/O)[C@H]4OC/C(=C\C=C\[C@@H]2C)[C@]43O)O[C@@H](C)C1O (stereo partly specified)
inactive

Kindly provide the recorded test outcome for the following compound: O=C(O)C1[O][Sb][O]C(C(=O)O)C1O (stereo unspecified)
inactive

---

Test system: HCC-2998 colon
Experiment: NCI tumour cell line growth inhibition, 48 h
OBSERVABLE: TGI

Please tell me the measured TGI for CC(C)=CCCC(C)CCOS(=O)C(F)(F)F (stereo not given) ; system: HCC-2998 colon.
27.5 µM

Please tell me the measured TGI for Nc1nc(/C=C\c2ccccc2)nc(N2CCN(c3ccccc3)CC2)n1 ; system: HCC-2998 colon.
41.5 µM

Please tell me the measured TGI for Cn1c2c(c3ccccc31)CCN1C(=O)CCC21 (stereo not given) ; system: HCC-2998 colon.
> 10 µM

Please tell me the measured TGI for CCOC(=O)/C(=N/Nc1ccccc1)N1C(=S)C=C(C)NN(C)C1=S ; system: HCC-2998 colon.
> 100 µM

Please tell me the measured TGI for Cc1cc(-c2cc(O)ccc2Cl)cc2nnc(Nc3ccc(OCCN4CCCC4)cc3)nc12 ; system: HCC-2998 colon.
3.66 µM

Please tell me the measured TGI for COC(=O)c1cc(NC(=O)Cc2c[nH]c3ccccc23)cn1C ; system: HCC-2998 colon.
> 100 µM

Please tell me the measured TGI for NC1=NN(c2ccccc2)C(=O)C1C(=O)C(=O)Nc1ccc(Cl)c(Cl)c1 (stereo not given) ; system: HCC-2998 colon.
> 100 µM

Please tell me the measured TGI for COC(=O)c1cc2c3ccccc3n3c2c(n1)-c1[nH]c2ccccc2c(=O)c1C3 ; system: HCC-2998 colon.
> 100 µM

Please tell me the measured TGI for O=C(CCN1CCCCC1)N1CCc2c([nH]c3ccccc23)C1c1cccnc1 (stereo not given) ; system: HCC-2998 colon.
54.8 µM

Please tell me the measured TGI for COc1cccc(C2c3cc4c(cc3OC(NNS(=O)(=O)c3ccc(C)cc3)C2C)OCO4)c1OC (stereo not given) ; system: HCC-2998 colon.
> 100 µM
